- Test system: 186277-243-T-J2-PDC spheroids with HUVEC/MSC, viability
- Protocol text: Anticancer human tumor 186277-243-T-J2-PDC patient-derived colon adenocarcinoma cell line growth inhibition [CLK]; active = viability on the fitted dose curve at most 10% of control; inactive = the rest
- Condition details: second compound 3.16 µM; first compound 0.0949 µM
Possible outcomes: active, inactive

- Compound: "NC(=O)C(=Cn1cnc(-c2cc(C(F)(F)F)cc(C(F)(F)F)c2)n1)c1cncnc1 + CN1CCN(c2cc(C(=O)Nc3cc4cc(-c5cnn(C)c5)ccc4cn3)ccn2)CC1"
  Label value: "active"
- Compound: "NC(=O)C(=Cn1cnc(-c2cc(C(F)(F)F)cc(C(F)(F)F)c2)n1)c1cncnc1 + CNC(=O)c1ccc(Nc2nc(OC3CCCC3)c3c(-c4ccc5nc(C)oc5c4)c[nH]c3n2)c(OC)c1"
  Label value: "active"
- Compound: "CC(C)CC(NC(=O)C(Cc1ccccc1)NC(=O)c1cnccn1)B(O)O (stereo unspecified) + CNC(=O)c1ccc(Nc2nc(OC3CCCC3)c3c(-c4ccc5nc(C)oc5c4)c[nH]c3n2)c(OC)c1"
  Label value: "active"
- Compound: "CC(C)CC(NC(=O)C(Cc1ccccc1)NC(=O)c1cnccn1)B(O)O (stereo unspecified) + CN1CCN(c2cc(C(=O)Nc3cc4cc(-c5cnn(C)c5)ccc4cn3)ccn2)CC1"
  Label value: "active"
- Compound: "C=CC(=O)Nc1cc(Nc2nccc(-c3cn(C)c4ccccc34)n2)c(OC)cc1N(C)CCN(C)C + CN1CCN(c2cc(C(=O)Nc3cc4cc(-c5cnn(C)c5)ccc4cn3)ccn2)CC1"
  Label value: "active"
- Compound: "C=CC(=O)Nc1cc(Nc2nccc(-c3cn(C)c4ccccc34)n2)c(OC)cc1N(C)CCN(C)C + CNC(=O)c1ccc(Nc2nc(OC3CCCC3)c3c(-c4ccc5nc(C)oc5c4)c[nH]c3n2)c(OC)c1"
  Label value: "inactive"

====

Parameter viability, T/C: see the listing below.
- System: 186277-243-T-J2-PDC spheroids with HUVEC/MSC, viability
- Protocol text: Anticancer human tumor 186277-243-T-J2-PDC cell line growth inhibition [CLK];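 also: compound exposure lasted seven days before readout; 100% = DMSO vehicle control wells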
- Condition details: second compound 0.0316 µM; first compound 0.00316 µM; hits give low values
Measured property: viability, T/C (%)

- Compound: "COc1c(OCCCN2CCOCC2)ccc2c3n(c(=NC(=O)c4cnc(N)nc4)nc12)CCN3 + CNC(=O)c1ccc(Nc2nc(OC3CCCC3)c3c(-c4ccc5nc(C)oc5c4)c[nH]c3n2)c(OC)c1"
  Measured property: "viability, T/C"
  Units of measure: "%"
  Observed value: 86.7
- Compound: "CCc1c2c(nc3ccc(O)cc13)-c1cc3c(c(=O)n1C2)COC(=O)[C@]3(O)CC + CN1CCN(c2cc(C(=O)Nc3cc4cc(-c5cnn(C)c5)ccc4cn3)ccn2)CC1"
  Measured property: "viability, T/C"
  Units of measure: "%"
  Observed value: 82.2
- Compound: "COc1c(OCCCN2CCOCC2)ccc2c3n(c(=NC(=O)c4cnc(N)nc4)nc12)CCN3 + CN1CCN(c2cc(C(=O)Nc3cc4cc(-c5cnn(C)c5)ccc4cn3)ccn2)CC1"
  Measured property: "viability, T/C"
  Units of measure: "%"
  Observed value: 93.9

====

- System: 186277-243-T-J2-PDC spheroids with HUVEC/MSC, viability
- Protocol text: Anticancer human tumor 186277-243-T-J2-PDC cell line growth inhibition [CLK]; active = viability on the fitted dose curve at most 10% of control; inactive = the rest;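 also: compound exposure lasted seven days before readout; 100% = DMSO vehicle control wells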
- Condition details: second compound 1 µM; first compound 0.0316 µM
Possible outcomes: active, inactive

- Compound: "CC(Nc1ccc2c(c1)OCCn1cc(N3C(=O)OCC3C(F)F)nc1-2)C(N)=O (stereo not given) + CNC(=O)c1ccc(Nc2nc(OC3CCCC3)c3c(-c4ccc5nc(C)oc5c4)c[nH]c3n2)c(OC)c1"
  Label value: "inactive"
- Compound: "CC(Nc1ccc2c(c1)OCCn1cc(N3C(=O)OCC3C(F)F)nc1-2)C(N)=O (stereo not given) + CN1CCN(c2cc(C(=O)Nc3cc4cc(-c5cnn(C)c5)ccc4cn3)ccn2)CC1"
  Label value: "active"
- Compound: "Nc1ccccc1NC(=O)c1ccc(CNC(=O)OCc2cccnc2)cc1 + CNC(=O)c1ccc(Nc2nc(OC3CCCC3)c3c(-c4ccc5nc(C)oc5c4)c[nH]c3n2)c(OC)c1"
  Label value: "inactive"
- Compound: "CCc1c2c(nc3ccc(O)cc13)-c1cc3c(c(=O)n1C2)COC(=O)[C@]3(O)CC + CN1CCN(c2cc(C(=O)Nc3cc4cc(-c5cnn(C)c5)ccc4cn3)ccn2)CC1"
  Label value: "active"
- Compound: "CC(=O)O[C@H]1C(=O)[C@@]2(C)[C@H]([C@H](OC(=O)c3ccccc3)[C@]3(O)C[C@H](OC(=O)[C@H](O)[C@@H](NC(=O)c4ccccc4)c4ccccc4)C(C)=C1C3(C)C)[C@]1(OC(C)=O)CO[C@@H]1C[C@@H]2O + CNC(=O)c1ccc(Nc2nc(OC3CCCC3)c3c(-c4ccc5nc(C)oc5c4)c[nH]c3n2)c(OC)c1"
  Label value: "inactive"
- Compound: "COc1c(OCCCN2CCOCC2)ccc2c3n(c(=NC(=O)c4cnc(N)nc4)nc12)CCN3 + CNC(=O)c1ccc(Nc2nc(OC3CCCC3)c3c(-c4ccc5nc(C)oc5c4)c[nH]c3n2)c(OC)c1"
  Label value: "active"
- Compound: "COC1C=CCC(C)C(C)S(=O)(=O)NC(=O)c2ccc3c(c2)N(CC2CCC21)CC1(CCCc2cc(Cl)ccc21)CO3 (stereo not given) + CNC(=O)c1ccc(Nc2nc(OC3CCCC3)c3c(-c4ccc5nc(C)oc5c4)c[nH]c3n2)c(OC)c1"
  Label value: "inactive"
- Compound: "CCCS(=O)(=O)Nc1ccc(F)c(C(=O)c2c[nH]c3ncc(-c4ccc(Cl)cc4)cc23)c1F + CNC(=O)c1ccc(Nc2nc(OC3CCCC3)c3c(-c4ccc5nc(C)oc5c4)c[nH]c3n2)c(OC)c1"
  Label value: "inactive"
- Compound: "Nc1ccccc1NC(=O)c1ccc(CNC(=O)OCc2cccnc2)cc1 + CN1CCN(c2cc(C(=O)Nc3cc4cc(-c5cnn(C)c5)ccc4cn3)ccn2)CC1"
  Label value: "active"
- Compound: "C=C(F)C(=O)N1CCN(c2nc(OCC3CCCN3C)nc3c2CCN(c2cccc4cccc(Cl)c24)C3)CC1CC#N (stereo not given) + CNC(=O)c1ccc(Nc2nc(OC3CCCC3)c3c(-c4ccc5nc(C)oc5c4)c[nH]c3n2)c(OC)c1"
  Label value: "inactive"
- Compound: "COc1ccc([C@@H](O)c2cc(-c3ncnc4cc(N5CCOCC5)ccc34)c(F)cc2Cl)nn1 + CNC(=O)c1ccc(Nc2nc(OC3CCCC3)c3c(-c4ccc5nc(C)oc5c4)c[nH]c3n2)c(OC)c1"
  Label value: "inactive"
- Compound: "CC(CO)NC(=O)c1cc(-c2ccc(Cl)cc2)nn(-c2cnn(C)c2)c1=O (stereo not given) + CNC(=O)c1ccc(Nc2nc(OC3CCCC3)c3c(-c4ccc5nc(C)oc5c4)c[nH]c3n2)c(OC)c1"
  Label value: "inactive"
- Compound: "CCCS(=O)(=O)Nc1ccc(F)c(C(=O)c2c[nH]c3ncc(-c4ccc(Cl)cc4)cc23)c1F + CN1CCN(c2cc(C(=O)Nc3cc4cc(-c5cnn(C)c5)ccc4cn3)ccn2)CC1"
  Label value: "active"
- Compound: "O=c1[nH]cc(F)c(=O)[nH]1 + CN1CCN(c2cc(C(=O)Nc3cc4cc(-c5cnn(C)c5)ccc4cn3)ccn2)CC1"
  Label value: "active"
- Compound: "Nc1ccn(C2OC(CO)C(O)C2(F)F)c(=O)n1 (stereo not given) + CNC(=O)c1ccc(Nc2nc(OC3CCCC3)c3c(-c4ccc5nc(C)oc5c4)c[nH]c3n2)c(OC)c1"
  Label value: "active"
- Compound: "CC1(C)CCC(CN2CCN(c3ccc(C(=O)NS(=O)(=O)c4ccc(NCC5CCOCC5)c([N+](=O)[O-])c4)c(Oc4cnc5[nH]ccc5c4)c3)CC2)=C(c2ccc(Cl)cc2)C1 + CN1CCN(c2cc(C(=O)Nc3cc4cc(-c5cnn(C)c5)ccc4cn3)ccn2)CC1"
  Label value: "active"
- Compound: "CC1COCCN1c1cc(C2(S(C)(=N)=O)CC2)nc(-c2ccnc3[nH]ccc23)n1 (stereo not given) + CN1CCN(c2cc(C(=O)Nc3cc4cc(-c5cnn(C)c5)ccc4cn3)ccn2)CC1"
  Label value: "active"
- Compound: "COc1c(OCCCN2CCOCC2)ccc2c3n(c(=NC(=O)c4cnc(N)nc4)nc12)CCN3 + CN1CCN(c2cc(C(=O)Nc3cc4cc(-c5cnn(C)c5)ccc4cn3)ccn2)CC1"
  Label value: "active"
- Compound: "COc1cccc2c1C(=O)c1c(O)c3c(c(O)c1C2=O)CC(O)(C(=O)CO)CC3OC1CC(N)C(O)C(C)O1 (stereo not given) + CNC(=O)c1ccc(Nc2nc(OC3CCCC3)c3c(-c4ccc5nc(C)oc5c4)c[nH]c3n2)c(OC)c1"
  Label value: "inactive"
- Compound: "Cn1ncnc1[C@H]1c2n[nH]c(=O)c3cc(F)cc(c23)N[C@@H]1c1ccc(F)cc1 + CNC(=O)c1ccc(Nc2nc(OC3CCCC3)c3c(-c4ccc5nc(C)oc5c4)c[nH]c3n2)c(OC)c1"
  Label value: "inactive"

The measured values listed here are drawn from PubChem BioAssay AID2060625.
